Hey, just so you know, these numbers are from patent US20220323406A1.

- System: ENR+CD organoids (ISC to Paneth cell differentiation)
- Test Name: Primary screen: basal (non-stimulated) lysozyme secretion LYZ.NS, 2.5-D 384-well ENR+CD organoid differentiation
- Format: cell-based, mouse
- Condition Details: primary screen, dose 10.00 uM
Reported Endpoint: Dose.FC.LYZ.NS
Please state the value followed by its unit.

Worked cases, answers included:
COc1cc2c(cc1O)CC[C@@H]1[C@@H]2CC[C@]2(C)[C@@H](O)CC[C@@H]12 :: −0.139 log2 fold change
Cc1cc([C@@H](C)Nc2ccccc2C(=O)O)c2nc(N3CCOCC3)cc(=O)n2c1 :: −0.248 log2 fold change
CCCCCCCCCCCC1=C(O)C(=O)C=C(O)C1=O :: −0.094 log2 fold change
CC1(C)CCC(CN2CCN(c3ccc(C(=O)NS(=O)(=O)c4ccc(NCC5CCOCC5)c([N+](=O)[O-])c4)c(Oc4cnc5[nH]ccc5c4)c3)CC2)=C(c2ccc(Cl)cc2)C1 :: −0.169 log2 fold change
CCC(COC(=O)c1cc(OC)c(OC)c(OC)c1)(c1ccccc1)N(C)C (centres unmarked) :: −0.214 log2 fold change
C[C@H](Oc1cc(-c2cnn(C3CCNCC3)c2)cnc1N)c1c(Cl)ccc(F)c1Cl [(S)-crizotinib] :: −0.068 log2 fold change
CCO.N#CC(=C(/N)Sc1ccccc1N)/C(C#N)=C(\N)Sc1ccccc1N :: −0.117 log2 fold change

Could you now consider this next compound?
Problem: Quick one: give measured Dose.FC.LYZ.NS for O=C(N/N=C/c1ccc(O)c(O)c1)c1cc2ccccc2cc1O
Result: 0.048 log2 fold change

----------
- System: ENR+CD organoids (ISC to Paneth cell differentiation)
- Test Name: Primary screen: basal (non-stimulated) lysozyme secretion LYZ.NS, 2.5-D 384-well ENR+CD organoid differentiation
- Assay type: cell-based, mouse
- Condition Details: primary screen, dose 0.40 uM
Each entry below carries its recorded Dose.FC.LYZ.NS.
Field format: number, assumed log2 fold change, no unit text.

Worked cases, answers included:
CC(C)CCN1c2nc(Nc3cc(F)c(O)c(F)c3)ncc2N(C)C(=O)C1C (stereo not shown) :: 0.126
COCC[n+]1c2c(n(Cc3cnccn3)c1C)C(=O)c1ccccc1C2=O.[Br-] [YM155 (Sepantronium Bromide)] :: −0.031
O=C1C(=O)N(Cc2ccc(Cl)c(Cl)c2)c2ccccc21 :: 0.033

Problem: Quick one: give measured Dose.FC.LYZ.NS for NC1(Cc2ccc(Cl)cc2)CCN(c2ncnc3[nH]ccc23)CC1
Result: −0.018

----------
- Tested on: ENR+CD organoids (ISC to Paneth cell differentiation)
- Test Name: Primary screen: basal (non-stimulated) lysozyme secretion LYZ.NS, 2.5-D 384-well ENR+CD organoid differentiation
- Type: cell-based, mouse
- Condition Details: primary screen, dose 10.00 uM
Where a name gives a salt, the structure may show the parent alone.
Label 1 (yes) when Z.LYZ.NS (standard z score) is at or above -0.9; anything below gets 0 (no).

Observe how each entry below is paired with its result.
NC(=O)Nc1sc(-c2ccc(F)cc2)cc1C(N)=O :: 0 (no)
COC1CCN(C(=O)c2cc(Cc3n[nH]c(=O)c4ccccc34)ccc2F)CC1 :: 0 (no)
CC(C)(C)c1cc(/C=C(\C#N)C(N)=S)cc(C(C)(C)C)c1O :: 0 (no)
CCNC(=O)c1noc(-c2cc(C(C)C)c(O)cc2O)c1-c1ccc(CN2CCOCC2)cc1 :: 0 (no)
CCN1CCC[C@H]1CNC(=O)c1cc(S(N)(=O)=O)ccc1OC [Levosulpiride] :: 1 (yes)

Problem: Given CN1CCc2cc3c(cc2[C@H]1[C@@H]1OC(=O)c2c1ccc1c2OCO1)OCO3 [(+)-Bicuculline] , state whether its Z.LYZ.NS (standard z score) is at least -0.9.
Result: 1 (yes)

Problem: Given O=C(/C=C\n1cnc(-c2cc(C(F)(F)F)cc(C(F)(F)F)c2)n1)N1CC(F)(F)C1 , state whether its Z.LYZ.NS (standard z score) is at least -0.9.
Result: 0 (no)

Problem: Given CC(C)(C)Cn1c(N)nc2ccc(-c3[nH]c(C(C)(C)C)nc3-c3ccc(F)cc3)nc21 , state whether its Z.LYZ.NS (standard z score) is at least -0.9.
Result: 0 (no)

Problem: Given O=C(/C=C\n1cnc(-c2cc(C(F)(F)F)cc(C(F)(F)F)c2)n1)NNc1cnccn1 , state whether its Z.LYZ.NS (standard z score) is at least -0.9.
Result: 0 (no)

Problem: Given Clc1ccccc1CN1CCc2sccc2C1 [Ticlopidine HCl] , state whether its Z.LYZ.NS (standard z score) is at least -0.9.
Result: 1 (yes)

Problem: Given O=C(O)c1ccc(N2C(=O)/C(=C\c3ccc(-c4ccc([N+](=O)[O-])cc4)o3)C=C2c2ccccc2)cc1 , state whether its Z.LYZ.NS (standard z score) is at least -0.9.
Result: 1 (yes)

Problem: Given Cc1cnc(NC(=O)Nc2cc(Br)c(C)cc2OC[C@@H]2CNCCO2)cn1 , state whether its Z.LYZ.NS (standard z score) is at least -0.9.
Result: 0 (no)

Problem: Given C[C@@H]1COCCN1c1cc(C2(S(C)(=O)=O)CC2)nc(-c2cccc3[nH]ccc23)n1 , state whether its Z.LYZ.NS (standard z score) is at least -0.9.
Result: 0 (no)

Problem: Given O=C(O)C(Cc1ccccc1[N+](=O)[O-])=NNc1nc(-c2ccc(Cl)c(Cl)c2)cs1 (mixture of isomers) , state whether its Z.LYZ.NS (standard z score) is at least -0.9.
Result: 1 (yes)

Problem: Given Cc1cc(SCc2sc(-c3ccc(C(F)(F)F)c(F)c3)nc2C)ccc1OCC(=O)O , state whether its Z.LYZ.NS (standard z score) is at least -0.9.
Result: 0 (no)

Problem: Given CS(=O)(=O)c1ccc(-c2cnc(N)c(C(=O)Nc3ccccc3)n2)cc1 , state whether its Z.LYZ.NS (standard z score) is at least -0.9.
Result: 0 (no)

Problem: Given O=C(Oc1cc(S(=O)(=O)c2ccccc2)ccc1[N+](=O)[O-])c1ccc(Cl)cc1 , state whether its Z.LYZ.NS (standard z score) is at least -0.9.
Result: 1 (yes)

Problem: Given Cc1cc(Nc2cc(N3CCN(C)CC3)nc(Sc3ccc(NC(=O)C4CC4)cc3)n2)n[nH]1 , state whether its Z.LYZ.NS (standard z score) is at least -0.9.
Result: 0 (no)

Problem: Given CC(C)NCC(O)COc1ccc(COCCOC(C)C)cc1 (stereo not shown) [Bisoprolol fumarate] , state whether its Z.LYZ.NS (standard z score) is at least -0.9.
Result: 1 (yes)

Problem: Given Cc1ccc(S(=O)(=O)NC(=O)NN2CC3CCCC3C2)cc1 (stereo not shown) [Gliclazide] , state whether its Z.LYZ.NS (standard z score) is at least -0.9.
Result: 1 (yes)

----------
- Test system: ENR+CD organoids (ISC to Paneth cell differentiation)
- Test Name: Primary screen: CCh-stimulated lysozyme secretion LYZ.S, 2.5-D 384-well ENR+CD organoid differentiation
- Type: cell-based, mouse
- Condition Details: primary screen, dose 0.08 uM
Each entry below carries its recorded Dose.FC.LYZ.S (log2 fold change).
The response must contain the number and no unit.

Cc1cc(Nc2ncc(Cl)c(Nc3ccccc3S(=O)(=O)C(C)C)n2)c(OC(C)C)cc1C1CCNCC1 :: 0.118
Cc1c(C(=O)Nc2ccc(N3C[C@@H](C)O[C@@H](C)C3)nc2)cccc1-c1ccc(OC(F)(F)F)cc1 :: 0.095
N#Cc1ccc(C(c2ccc(C#N)cc2)n2cncn2)cc1 :: 0.040

Could you now consider this next compound?
Problem: Quick one: give measured Dose.FC.LYZ.S (log2 fold change) for COc1ccc2c(c1)C(=O)N(CCc1ccc(S(=O)(=O)NC(=O)NC3CCCCC3)cc1)C(=O)C2(C)C
Result: 0.101

----------
Each entry below carries its recorded Dose.FC.LYZ.NS.
- System: ENR+CD organoids (ISC to Paneth cell differentiation)
- Test Name: Primary screen: basal (non-stimulated) lysozyme secretion LYZ.NS, 2.5-D 384-well ENR+CD organoid differentiation
- Type: cell-based, mouse
- Condition Details: primary screen, dose 0.40 uM
- Description: High-throughput screening.
Structures can show the parent of a compound that is named as a salt.
Field format: number, assumed log2 fold change, no unit text.

Worked cases, answers included:
COc1ccc2c(c1)c(CC(=O)N1CCOCC1)c(C)n2C(=O)c1ccc(Cl)cc1 :: −0.017
CN1CCC[C@@H]1CCO[C@](C)(c1ccccc1)c1ccc(Cl)cc1 [Clemastine Fumarate] :: −0.026
COc1nc(C)cnc1NS(=O)(=O)c1cccnc1-c1ccc(-c2nnco2)cc1 [Zibotentan (ZD4054)] :: 0.054
CC1(C)CCC(CN2CCN(c3ccc(C(=O)NS(=O)(=O)c4ccc(NCC5CCOCC5)c([N+](=O)[O-])c4)c(Oc4cnc5[nH]ccc5c4)c3)CC2)=C(c2ccc(Cl)cc2)C1 :: −0.029
CCC(COC(=O)c1cc(OC)c(OC)c(OC)c1)(c1ccccc1)N(C)C (centres unmarked) :: −0.019

Problem: Quick one: give measured Dose.FC.LYZ.NS for Nc1nc(N)c2nc(-c3cccc(O)c3)c(-c3cccc(O)c3)nc2n1
Result: −0.026

Problem: Quick one: give measured Dose.FC.LYZ.NS for COc1ccc([C@]2(C#N)CC[C@@H](C(=O)O)CC2)cc1OC1CCCC1
Result: −0.037

Problem: Quick one: give measured Dose.FC.LYZ.NS for CN(C)CCCCC(=O)Nc1ccc(NC(=S)NC(=O)c2ccc(C(C)(C)C)cc2)cc1
Result: −0.053
